Tested on: UACC-62
ASSAY_PROCEDURE: NCI tumour cell line growth inhibition, 48 h
Activity calls are given as the source filed them. Cut-off read from the data, not from the text of the source: active = GI50 up to about 1.1 µM and inactive = higher. Where a SMILES comes first, the peptide text is derived from it.
Respond only with the outcome that fits, drawn from active, inactive

Example entries and their recorded answers appear below.
COMPOUND	CLASS_ASSIGNMENT
O=C1C=Cc2c(Br)sc(Br)c21	inactive
COc1c(O)ccc(/C=N/NC(=S)NCOCCOC(C)=O)c1OC	inactive
CCN(CCCl)c1cc(CN(C)C)cc(NC(=O)c2ccc(C(=O)Nc3cccc(N(CCCl)NN)c3)cc2)c1	active
CCCCCCCCCCCCCCCCOCC(CP(=O)([O-])OCC[n+]1ccccc1)OC (stereo unspecified)	inactive
O=C(O)C(CO)NC(=O)n1c2ccccc2c2ccccc21 (stereo unspecified)	inactive
COc1ccc(/N=C(\C)c2ccncc2)cc1	inactive
CCC(C)C1NC(=O)C2CCCN2C(=O)CNC(=O)C(C)NC(=O)C(Cc2ccccc2)NC(=O)C(C(C)C)NC1=O (stereo unspecified) (cyclo(GPIVFA); configuration not given here)	inactive
CC(O)c1ccc[n+](Cc2ccccc2)c1 (stereo unspecified)	inactive

Query block: Record request — test call for CN1CC2=C(OC(N)=C(C#N)C2c2cccs2)/C(=C/c2cccs2)C1 (stereo unspecified)
Result block: inactive

Query block: Do the same for "O=C(O)C/N=C(\C(=N\CC(=O)O)c1ccccc1)c1ccccc1" please
Result block: inactive

Query block: Do the same for "COc1cccc(Nc2nc(N)nc(N)c2N=O)c1" please
Result block: inactive
